target: p53/hDM2 (Homo sapiens); experiment: competition fluorescence anisotropy assay, displacement of p53 15-31 Flu from hDM2; format: binding; details: Table S2; SAR competition assays, Plate Reader II; * lower anisotropy observed, attributed to solubility causing assay interference (7a, 7b, 7c); read-out: IC50
Give measured pIC50 for each item. Keep answers brief.
Scale note: pIC50 = -log10(concentration in M).

Asked: Reported pIC50, compound O=C(CC(c1ccc(Cl)s1)c1c[nH]c2ccc(Cl)cc12)NC1CC1c1ccccc1 (centres unmarked) : ____
Given back: 5.92

Asked: Bench note: what pIC50 did O=C(CC(c1ccc(Cl)s1)c1c[nH]c2cc(Cl)ccc12)NCCc1ccccn1 (centres unmarked) show?
Given back: 5.00

Asked: So what does the record say about pIC50 for O=C(CC(c1ccc(Cl)s1)c1c[nH]c2ccc(Cl)cc12)NCCc1ccccc1 (centres unmarked) ?
Given back: 4.89

Asked: Look up pIC50: O=C(CC(c1ccc(Cl)s1)c1c[nH]c2cc(Cl)ccc12)NCCc1ccccc1 (centres unmarked)
Given back: 4.74

Asked: pIC50 for O=C(CC(c1ccc(Cl)s1)c1c[nH]c2ccc(Cl)cc12)NCCc1ccccn1 (centres unmarked) ?
Given back: 5.10

Asked: Returns the measured pIC50 for the input compound. Input: COCCNC(=O)CC(c1ccc(Cl)s1)c1c[nH]c2cc(Cl)ccc12 (centres unmarked)
Given back: 4.07

Asked: State the recorded pIC50 for this entry: O=C(CC(c1ccc(Cl)s1)c1c[nH]c2ccc(Cl)cc12)NCc1ccccc1 (centres unmarked)
Given back: 5.30

---

target: p53/hDM2 (Homo sapiens, UniProt Q00987); test: competition fluorescence anisotropy assay, displacement of p53 15-31 Flu from hDM2; assay type: binding; conditions: fluorescence anisotropy competition, 150 nM hDM2, 25 nM p53 15-31 Flu, 40 mM phosphate pH 7.4, 200 mM NaCl, 0.02 mg/ml BSA; read-out: IC50
measured_metric: log10 IC50 (log10 of the value in µM)
// do not treat as linear: log10 of IC50, unit µM

Asked: Look at this compound and give its reported log10 IC50. O=C(CC(c1ccc(Cl)s1)c1c(Br)[nH]c2cc(Cl)ccc12)NCCc1ccccn1 (stereo not drawn) [11a]
Given back: 0.00

Asked: Please give the measured log10 IC50 for this compound: CC(C(=O)NCCc1ccccn1)C(c1ccc(Cl)s1)c1c[nH]c2ccc(Cl)cc12 (single isomer, unassigned; (+)) [(+)-anti-10]
Given back: 0.46

Asked: Requested read-out: log10 IC50. Entry: CC(C(=O)NCCc1ccccn1)C(c1ccc(Cl)s1)c1c[nH]c2ccc(Cl)cc12 (stereo not drawn) [anti-10]
Given back: 0.49

Asked: Param item = CC(C(=O)NCCc1ccccn1)C(c1ccc(Cl)s1)c1c[nH]c2ccc(Cl)cc12 (single isomer, unassigned; (-)) [(−)-anti-10] ; retrieve measured log10 IC50.
Given back: 0.66

Asked: Need log10 IC50 of CC(C(=O)N1CCC(c2ccccn2)C1)C(c1ccc(Cl)s1)c1c[nH]c2cc(Cl)ccc12 (stereo not drawn) , thanks.
Given back: 0.08

Asked: Consider the compound NCCNC(=O)c1[nH]c2ccc(Cl)cc2c1C(CC(=O)NCCc1ccccn1)c1ccc(Cl)s1 (stereo not drawn) [11f] and give its measured log10 IC50.
Given back: 1.40

Asked: Consider the compound shown here: O=C(CC(c1ccc(Cl)s1)c1c(C(=O)O)[nH]c2ccc(Cl)cc12)NC1CC1c1ccccc1 (stereo not drawn) What is its recorded log10 IC50?
Given back: 0.34

Asked: # get_value(readout='log10 IC50', item= O=C(CC(c1ccc(Cl)s1)c1c[nH]c2cc(Cl)ccc12)NCCc1ccccn1 (stereo not drawn) )
Given back: 0.78

---

target: p53/hDM2 (Homo sapiens, UniProt Q00987); experiment: competition fluorescence anisotropy assay, displacement of p53 15-31 Flu from hDM2; assay type: binding; conditions: Table S2; SAR competition assays, Plate Reader II; read-out: IC50
pIC50: −log10 of the molar value.
Label rule, in plain words: pIC50 of 5 and up is 1 (yes), under 5 is 0 (no).

Asked: Evaluate CC(C)CNC(=O)c1[nH]c2ccc(Cl)cc2c1C(CC(=O)NCCc1ccccn1)c1ccc(Cl)s1 (stereo not shown) [11i] : pIC50 at minimum 5?
Given back: 0 (no)

Asked: Please indicate if the recorded pIC50 for O=C(CC(c1ccc(Cl)s1)c1c(C(=O)O)[nH]c2ccc(Cl)cc12)NC1CC1c1ccccc1 (stereo not shown) meets or exceeds 5.
Given back: 1 (yes)

Asked: Entry CC(C(=O)NCCc1ccccn1)C(c1ccc(Cl)s1)c1c[nH]c2ccc(Cl)cc12 (stereo not drawn) [syn-10] : is its pIC50 no less than 5?
Given back: 0 (no)

Asked: Is the recorded value of pIC50 equal to or greater than 5 for this compound? CC(C(=O)NCCc1ccccn1)C(c1ccc(Cl)s1)c1c[nH]c2ccc(Cl)cc12 (single isomer, unassigned; (-)) [(−)-anti-10]
Given back: 1 (yes)

Asked: Could you tell me if the measured pIC50 of O=C(O)CCNC(=O)c1[nH]c2ccc(Cl)cc2c1C(CC(=O)NCCc1ccccn1)c1ccc(Cl)s1 (stereo not shown) [11e] reaches 5 or more?
Given back: 0 (no)

Asked: Dear colleague, could you confirm whether NCCNC(=O)c1[nH]c2ccc(Cl)cc2c1C(CC(=O)NCCc1ccccn1)c1ccc(Cl)s1 (stereo not shown) [11f] has pIC50 at or above 5?
Given back: 0 (no)

Asked: Kindly determine if pIC50 recorded for O=C(CC(c1ccc(Cl)s1)c1c(Br)[nH]c2cc(Cl)ccc12)NCCc1ccccn1 (stereo not shown) [11a] is above or exactly 5.
Given back: 1 (yes)

Asked: Textbook exercise: given the entry CC(C(=O)NCCc1ccccn1)C(c1ccc(Cl)s1)c1c[nH]c2ccc(Cl)cc12 (single isomer, unassigned; (+)) [(+)-anti-10] , state whether its pIC50 is greater than or equal to 5.
Given back: 1 (yes)

Asked: Form field: pIC50 at least 5? Entry: O=C(CC(c1ccc(Cl)s1)c1c(C(=O)NCc2ccccc2)[nH]c2ccc(Cl)cc12)NCCc1ccccn1 (stereo not shown) [11h]
Given back: 0 (no)

Asked: Determine whether this compound has pIC50 no lower than 5: CC(C(=O)NCCc1ccccn1)C(c1ccc(Cl)s1)c1c[nH]c2ccc(Cl)cc12 (stereo not drawn) [anti-10]
Given back: 1 (yes)

Asked: Determine whether this compound has pIC50 no lower than 5: O=C(CC(c1ccc(Cl)s1)c1c(C(=O)O)[nH]c2ccc(Cl)cc12)NCCc1ccccn1 (stereo not shown) [11b]
Given back: 1 (yes)

Asked: Could you tell me if the measured pIC50 of CC(C(=O)N1CCC(c2ccccn2)C1)C(c1ccc(Cl)s1)c1c[nH]c2cc(Cl)ccc12 (stereo not shown) reaches 5 or more?
Given back: 1 (yes)

Asked: Is it the case that CC(C)(C)OC(=O)NCCNC(=O)c1[nH]c2ccc(Cl)cc2c1C(CC(=O)NCCc1ccccn1)c1ccc(Cl)s1 (stereo not shown) [11g] has pIC50 reaching or exceeding 5?
Given back: 0 (no)

Asked: Answer whether pIC50 of CCOC(=O)CCNC(=O)c1[nH]c2ccc(Cl)cc2c1C(CC(=O)NCCc1ccccn1)c1ccc(Cl)s1 (stereo not shown) [11c] is greater than or equal to 5.
Given back: 1 (yes)
